Value source: patent US9399646B2

- assayed_target: ER-α in MCF-7 cells (Homo sapiens, UniProt P03372)
- Sequence (P03372 whole entry): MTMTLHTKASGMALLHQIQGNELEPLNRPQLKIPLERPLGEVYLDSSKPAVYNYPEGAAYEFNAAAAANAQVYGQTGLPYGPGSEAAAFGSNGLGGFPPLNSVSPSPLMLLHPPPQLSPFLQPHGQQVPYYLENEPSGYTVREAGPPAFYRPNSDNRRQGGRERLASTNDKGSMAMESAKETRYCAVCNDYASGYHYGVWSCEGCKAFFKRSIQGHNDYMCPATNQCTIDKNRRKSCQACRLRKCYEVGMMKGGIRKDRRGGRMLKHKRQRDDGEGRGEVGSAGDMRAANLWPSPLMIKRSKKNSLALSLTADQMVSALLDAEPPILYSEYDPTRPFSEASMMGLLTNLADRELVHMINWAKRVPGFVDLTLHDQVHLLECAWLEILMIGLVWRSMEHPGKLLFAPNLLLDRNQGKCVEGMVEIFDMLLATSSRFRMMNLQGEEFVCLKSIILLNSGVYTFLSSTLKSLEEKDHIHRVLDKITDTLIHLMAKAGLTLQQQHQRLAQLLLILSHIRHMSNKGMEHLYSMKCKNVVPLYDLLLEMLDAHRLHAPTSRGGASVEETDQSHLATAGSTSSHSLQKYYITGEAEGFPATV
- experiment_notes: Breast cancer cell ER-α in cell western assay (SP1)
- Assay type: cell-based
- Design: endogenous in cells; host or cells: MCF-7
- setup_conditions: SP1 antibody, 4 or 24 hr post compound addition, read-out: ER-α In Cell Western Assay (SP1) IC50
measured_metric: DC50

Some molecules with recorded DC50:
CC/C(=C(/c1ccc(/C=C/C(=O)O)cc1)c1ccc2[nH]ncc2c1)c1cccc(OCCOC)c1: ≤ 100 nM
Cc1cscc1/C(=C(\c1ccc(/C=C/C(=O)O)cc1)c1ccc2scnc2c1)C1CCC1: ≤ 100 nM
CC/C(=C(/c1ccc(/C=C/c2nn[nH]n2)cc1)c1ccc2scnc2c1)c1ccncc1Cl: ≤ 100 nM
CC/C(=C(/c1ccc(/C=C/C(=O)O)cc1)c1ccc2scnc2c1)c1cccc(Oc2ccccc2)c1: ≤ 100 nM
CC/C(=C(/c1ccc(/C=C/C(=O)O)cc1)c1ccc2[nH]ncc2c1)c1sccc1C: ≤ 100 nM
CC/C(=C(/c1ccc(/C=C/C(=O)O)cc1)c1ccc2[nH]ncc2c1F)c1cccc(OC2CCN(C)CC2)c1: > 100 nM
CC/C(=C(/c1ccc(/C=C/C(=O)O)cc1)c1ccc2[nH]ncc2c1)c1cccc(Oc2ccc(C(F)(F)F)cn2)c1: ≤ 100 nM
CC/C(=C(/c1ccc(/C=C/C(=O)O)cc1)c1ccc2nccnc2c1)c1ccccc1: > 100 nM

Recorded DC50 of "CC/C(=C(/c1ccc(/C=C/C(=O)O)cc1)c1ccc2cncn2c1)c1ccccc1" , please. > 100 nM

Recorded DC50 of "CC/C(=C(/c1ccc(/C=C/C(=O)O)cc1)c1cccc2[nH]c(=O)ccc12)c1ccccc1" , please. > 100 nM

Recorded DC50 of "CC/C(=C(/c1ccc(/C=C/C(=O)O)cc1)c1ccc2[nH]ncc2c1)c1ccc(Nc2ccccc2)cc1" , please. ≤ 100 nM
